methodSummary: 14C assay: 14CO2 capture from [14C]-carboxyl-labeled dicamba with IPTG-induced recombinant E. coli cells
conditionsUsed: IPTG-induced recombinant E. coli cells; 14CO2 from [14C]-carboxyl-labeled dicamba

molecule	Dicamba Decarboxylase Activity
14 (protein, listed as Talaromyces marneffei) MARGKVSFEEAYEIPALADKSREQAALYIAPKDLDRYLSEIKSPTGGRLDISNKNGIGYTIYSLTVPGVQGIADKAKAEKHATDVNNWIYNEIKDHRDRMGAFAALSMHDPVQAGQELERCVKKLGFHGALLNNWQHAGTDGETYIFYDHPSYDVFWQKCVELDVPVYLHPSAPSGKVFDTFFKDRRYLIGPPISFAQDVALHTMGLITNGVFDRNPKLKLILGHLGERIPQDLWRTNHWLEDVERPLADSRGDTMSRKPLLYYFKNNIYVTTSGHFSTETVKFVCDYFGADRILFSVDSPYEKIEEGAGWYDKDKDNLTKALGGPQQYLDVGRENAKKLFKLGKYHDCDA	Low
11 (protein, Aspergillus niger) MALGKIALEEAFALPRFEEKTRWWASLFSVDPETHVKEITDINKLRIEHADKYGVGYQILSYTAPGVQDIWDPVEAQALAVEINDYIAEQIRDKPDRFGAFATLSMHNPQEAASELRRCVQTYGFKGALVNDTQRAGPDGDDMIFYDNASWDIFWQTCTELDVPLYLHPRNPTGTIYEKLWADRKWLVGPPLSFAQGVSLHVLGMVTNGVFDRHPNLQLIMGHLGEHVPFDMWRINHWFEDRKKLLGLAETCKKTIREYFAQNIWITTSGHFSTTTLNFCMAEVGVDRILFSIDYPFETFEDACVWFDGAELNLSDKAKIGRDNAARLFKLGAFRDYDAKVKA	Low
49 (protein, listed as Streptomyces sp.) MAKIIALEEHFSDPAVAKAGAARARALSPGFAASYSPASGLPYSPSPEVLENLAEKRLADMDAGGITMQVLSGLGAQTVPADVAPALVAGSNDKAAAAVRAHPDRFAAFAALPTATPEAAVAELDRSVNELGFVGTLIMGRTEGEFLDAPRFEPILARAAALKVPVFLHPGVPPREITDSNYAAGLPTGIGTRLQTAAWGWHQETAVHFLHLVHSGVLDRYPDLQFILGHWGEMIPFYLDRVDEALPQRATGLDRSFHEYFRENVYLAPSGMWSQAQLRFCLETVPLERIVFAVDYPFIGNEGAVPFLEKAELPQADKRKIAHENAERLLGL	High
